biological target: Prostaglandin G/H synthase 1 (Ovis aries); experiment: In vitro inhibition of Prostaglandin G/H synthase 1 (from ram seminal vesicles) at a concentration of […]
PROPERTY_MEASURED: inhibition (%)

// below: answered molecules
**Q:** Report measured inhibition; entry is CC(=O)NS(=O)(=O)c1ccc(-n2nc(C(F)(F)F)cc2-c2ccc(C)cc2)cc1
**A:** 10

**Q:** Report measured inhibition; entry is CCCC(=O)NS(=O)(=O)c1ccc(-n2nc(C(F)(F)F)cc2-c2ccc(SC)cc2)c(F)c1
**A:** 34

a: COc1ccc(-c2cc(C(F)(F)F)nn2-c2ccc(S(N)(=O)=O)c(C)c2)cc1
b: CCCC(=O)NS(=O)(=O)c1ccc(-n2nc(C(F)(F)F)cc2-c2ccc(OC)cc2)c(F)c1
**Q:** Please state the entry with greater inhibition among a and b . Return value: the label identifying the chosen record.
**A:** a

====

tested on: Rattus norvegicus; test: Evaluated in vivo for oral dose required to produce antiinflammatory activity in the rat paw edema assay (male Wistar rat); format: functional
PROPERTY_MEASURED: ED50 (mg/kg)
Numbers only here, please. The scale is mg/kg.

// below: answered compounds
**Q:** Report measured ED50; entry is Cc1ccc(-c2cc(C(F)(F)F)nn2-c2ccc(S(N)(=O)=O)cc2)cc1 [CELECOXIB]
**A:** 7.9

**Q:** Report measured ED50; entry is COc1ccc(-c2cc(C(F)(F)F)nn2-c2ccc(S(N)(=O)=O)c(F)c2)cc1
**A:** 12.7

**Q:** Report measured ED50; entry is CCC(=O)[N-]S(=O)(=O)c1ccc(-c2c(-c3ccccc3)noc2C)cc1.[Na+] [PARECOXIB SODIUM]
**A:** 5

**Q:** Report measured ED50; entry is CCCC(=O)[N-]S(=O)(=O)c1ccc(-n2nc(C(F)(F)F)cc2-c2ccc(C)cc2)cc1.[Na+]
**A:** 6.69

***
**Q:** Report measured ED50; entry is CCC(=O)[N-]S(=O)(=O)c1ccc(-n2nc(C(F)(F)F)cc2-c2ccc(OC)cc2)c(F)c1.[Na+]
**A:** 6

====

biological target: Prostaglandin G/H synthase 1 (Ovis aries) (UniProt P05979); test: In vitro inhibition of Prostaglandin G/H synthase 1 (from ram seminal vesicles) at a concentration of […]
Sequence (P05979 whole entry): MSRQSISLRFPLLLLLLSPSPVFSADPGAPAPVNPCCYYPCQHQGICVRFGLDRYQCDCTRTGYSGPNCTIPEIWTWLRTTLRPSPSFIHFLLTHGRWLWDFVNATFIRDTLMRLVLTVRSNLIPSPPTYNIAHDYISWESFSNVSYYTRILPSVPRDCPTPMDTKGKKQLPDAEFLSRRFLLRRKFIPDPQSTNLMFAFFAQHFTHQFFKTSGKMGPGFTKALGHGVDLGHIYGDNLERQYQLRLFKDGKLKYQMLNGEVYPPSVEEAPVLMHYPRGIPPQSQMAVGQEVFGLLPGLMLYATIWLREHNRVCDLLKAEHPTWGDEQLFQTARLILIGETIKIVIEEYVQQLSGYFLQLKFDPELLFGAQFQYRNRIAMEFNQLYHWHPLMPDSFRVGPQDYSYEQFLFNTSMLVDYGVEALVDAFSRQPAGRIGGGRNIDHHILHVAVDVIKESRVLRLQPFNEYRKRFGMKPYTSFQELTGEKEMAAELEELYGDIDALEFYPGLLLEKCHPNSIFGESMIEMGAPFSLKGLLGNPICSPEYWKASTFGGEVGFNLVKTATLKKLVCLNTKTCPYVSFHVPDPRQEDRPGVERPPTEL
PROPERTY_MEASURED: inhibition (%)

// below: answered molecules
**Q:** Report measured inhibition; entry is CCCC(=O)NS(=O)(=O)c1ccc(-n2nc(C(F)(F)F)cc2-c2ccc(F)cc2)c(F)c1
**A:** 0

**Q:** Report measured inhibition; entry is CSc1ccc(-c2cc(C(F)(F)F)nn2-c2ccc(S(N)(=O)=O)cc2F)cc1
**A:** 29

**Q:** Report measured inhibition; entry is COc1ccc(-c2cc(C(F)(F)F)nn2-c2ccc(S(N)(=O)=O)cc2F)cc1
**A:** 13

**Q:** Report measured inhibition; entry is COc1ccc(-c2cc(C(F)(F)F)nn2-c2ccc(S(N)(=O)=O)c(F)c2)cc1
**A:** 0

**Q:** Report measured inhibition; entry is COc1ccc(-c2cc(C(F)(F)F)nn2-c2ccc(S(=O)(=O)NC(=O)C(C)(C)C)cc2F)cc1
**A:** 16

I: CCC(=O)NS(=O)(=O)c1ccc(-n2nc(C(F)(F)F)cc2-c2ccc(F)cc2)c(F)c1
II: CC(=O)NS(=O)(=O)c1ccc(-n2nc(C(F)(F)F)cc2-c2ccc(F)cc2)c(F)c1
**Q:** Please state the entry with greater inhibition among I and II . Return value: the label identifying the chosen record.
**A:** II

1: CCCC(=O)[N-]S(=O)(=O)c1ccc(-n2nc(C(F)(F)F)cc2-c2ccc(C)cc2)cc1.[Na+]
2: CCC(=O)NS(=O)(=O)c1ccc(-n2nc(C(F)(F)F)cc2-c2ccc(C)cc2)cc1
3: COc1ccc2c(c1)c(CC(=O)O)c(C)n2C(=O)c1ccc(Cl)cc1
**Q:** // ranking: key=inhibition, reverse=True Answer format: list of labels, ordered as asked.
**A:** 3, 1, 2
(3: 100%, 1: 2%, 2: 0%)

These data points were gathered from ChEMBL document CHEMBL1145080.
